# Test system: Huh-7
# test-method-notes: Cytotoxicity against Huh7 cells by MTS assay
# Assay type: functional, cell-based
# recorded-conditions: Homo sapiens
readout-type: IC50 (µM)

>>> reported_result("CCCC1(C(=O)O)CCc2c1[nH]c1c(Cl)ccc(Cl)c21 (stereo unspecified)")
43
